Hello, the source for this data is the RNAGym collection of RNA variant scans (doi:10.1093/molbev/msab373), in case you need it.

Catalogue of reverse-splicing fitness values
B1: Azoarcus group I ribozyme (parent)
chain: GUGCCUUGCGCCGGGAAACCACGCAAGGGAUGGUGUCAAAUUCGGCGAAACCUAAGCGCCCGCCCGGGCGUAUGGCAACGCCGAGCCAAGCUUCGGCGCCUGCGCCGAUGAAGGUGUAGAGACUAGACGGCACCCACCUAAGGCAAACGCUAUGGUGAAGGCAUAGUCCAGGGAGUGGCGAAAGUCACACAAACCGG

# Variants of: B1
# RUN DESCRIPTION: reverse-splicing fitness (ratio to wild type); higher = more active; in vitro selection; Mg2+ level not given
PROPERTY: reverse-splicing fitness

- VARIANT CODE: "A120G A145U C150A C169U U176G"
  PROPERTY: "reverse-splicing fitness"
  RECORDED RESULT: 0.00749
- VARIANT CODE: "C82G A111G A120U A145C C150U U176G"
  PROPERTY: "reverse-splicing fitness"
  RECORDED RESULT: 0.00303
- VARIANT CODE: "C82A A111U A145U C150U C169U"
  PROPERTY: "reverse-splicing fitness"
  RECORDED RESULT: 0.0124
- VARIANT CODE: "C82G A120G A145G C150A C169U U176A"
  PROPERTY: "reverse-splicing fitness"
  RECORDED RESULT: 0.021
- VARIANT CODE: "C82A A111G A120C A145U C150A C169G U176A"
  PROPERTY: "reverse-splicing fitness"
  RECORDED RESULT: 0.0188
- VARIANT CODE: "C82U A111U A120C C150G"
  PROPERTY: "reverse-splicing fitness"
  RECORDED RESULT: 0.00758
- VARIANT CODE: "A111G A120U C150G C169U U176A"
  PROPERTY: "reverse-splicing fitness"
  RECORDED RESULT: 0.00346
- VARIANT CODE: "C82A A111U A120G C150A"
  PROPERTY: "reverse-splicing fitness"
  RECORDED RESULT: 0.0106
- VARIANT CODE: "C82U A120U A145U U176G"
  PROPERTY: "reverse-splicing fitness"
  RECORDED RESULT: 0.013
- VARIANT CODE: "C82G A111U A120C C169U"
  PROPERTY: "reverse-splicing fitness"
  RECORDED RESULT: 0.0134
- VARIANT CODE: "A111U A120C A145U C150A C169G U176A"
  PROPERTY: "reverse-splicing fitness"
  RECORDED RESULT: 0.0112
- VARIANT CODE: "A111C A120C C150G U176C"
  PROPERTY: "reverse-splicing fitness"
  RECORDED RESULT: 0.0288
- VARIANT CODE: "A111G A120G C169G U176A"
  PROPERTY: "reverse-splicing fitness"
  RECORDED RESULT: 0.09
- VARIANT CODE: "C82U A111G A120U C169G U176A"
  PROPERTY: "reverse-splicing fitness"
  RECORDED RESULT: 0.0028
- VARIANT CODE: "C82G A111G A120U A145U C150G C169G"
  PROPERTY: "reverse-splicing fitness"
  RECORDED RESULT: 0.003
- VARIANT CODE: "C82A A111U A120C A145G C150G U176G"
  PROPERTY: "reverse-splicing fitness"
  RECORDED RESULT: 0.00733
- VARIANT CODE: "C82U A111G A120C A145C C150G C169A U176G"
  PROPERTY: "reverse-splicing fitness"
  RECORDED RESULT: 0.00425
- VARIANT CODE: "C82U A111G C150G C169A U176A"
  PROPERTY: "reverse-splicing fitness"
  RECORDED RESULT: 0.00962
- VARIANT CODE: "A111G C169G U176C"
  PROPERTY: "reverse-splicing fitness"
  RECORDED RESULT: 0.0577
- VARIANT CODE: "A111C C150G C169A"
  PROPERTY: "reverse-splicing fitness"
  RECORDED RESULT: 0.00834
- VARIANT CODE: "A111C A120C U176G"
  PROPERTY: "reverse-splicing fitness"
  RECORDED RESULT: 0.0393
- VARIANT CODE: "C82A A120C C150G C169A U176C"
  PROPERTY: "reverse-splicing fitness"
  RECORDED RESULT: 0.0129
